Tested on: S. mansoni schistosomulae
Experiment: Phenotypic primary screen assay on schistosomulae (phenotype; viability by methylene blue dye exclusion)
Assay type: cell-based, Schistosoma mansoni
Details: three-day-old schistosomulae, 10 μM, 24 h; calculated 5 days post compound exposure
Reported Viability (%) values follow for various molecules
Give a bare numeral; the unit % is implied.

// worked examples, Viability (%) included
CCn1c2ccccc2c2cc(Nc3ccnc(NCCCN4CCOCC4)n3)ccc21 : 80
CCOC(=O)CCNc1cc(N2CCc3ccccc3CC2)nc(-c2ccccn2)n1 : 5
O=c1[nH]c2ccc(Cl)cc2c(N[C@@H]2CN3CCC2CC3)c1-c1nc2ccccc2[nH]1 : 77
c1cc(-c2cnn3cc(-c4ccc(N5CCNCC5)cc4)cnc23)c2cccnc2c1 : 0
NS(=O)(=O)C#Cc1ccccc1 : 0
Cc1nc(C#Cc2ccnc(Cl)c2)c(C)n1-c1ccc(OC(F)(F)F)cc1 : 99

Tell me the measured Viability (%) of CC(=O)c1cc([N+](=O)[O-])c(Sc2ccc(F)cc2F)s1 , please.
5

Entry C#CC[C@H](c1nc2cc(Cl)ccc2c(=O)n1Nc1ccccc1)N(CCCN)C(=O)c1cccc(Cl)c1F please
13
